- Measured on: T1, mouse LTBP3-proTGFβ1 complex (mouse, UniProt Q61810 41-1245; P04202 30-390, limits assumed)
- T1 construct: Exemplary entries; also called Mo LTBP3-proTGFβ1; Murine LTBP3 proTGFb1
- Measurement notes: Octet BLI, IgG captured
- Procedure: Binding affinities of the optimized antibodies were measured by Octet against human LTBP1-proTGFβ1, human LTBP3-proTGFβ1, mouse LTBP1-proTGFβ1, mouse LTBP3-proTGFβ1, and GARP-proTGFβ1 complexes, essentially as described in Example 6. […] The antigens were allowed to associate for 3 minutes followed by a 5-minute dissociation. Kinetics buffer (ForteBio®) was used throughout the experiment, and KD was determined using a 1:1 fitting model for each antibody antigen pair.
Measurement label: pKd
Just so you know, pKd here is -log10 of the concentration in molar units; reply with that number alone.

A selection of reference data follows.
SR-AB38 (antibody, IgG1, V domains shown, Cycle 3, lineage SR-AB22) VH: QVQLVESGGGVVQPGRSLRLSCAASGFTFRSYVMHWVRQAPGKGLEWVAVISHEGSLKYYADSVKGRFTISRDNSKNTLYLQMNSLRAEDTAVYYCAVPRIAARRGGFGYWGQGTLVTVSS VL: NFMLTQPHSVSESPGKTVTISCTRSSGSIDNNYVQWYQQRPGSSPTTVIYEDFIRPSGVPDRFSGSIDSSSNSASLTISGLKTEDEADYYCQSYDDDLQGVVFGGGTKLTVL : 9.48
SR-AB31 (antibody, IgG1, V domains shown, Cycle 3, lineage SR-AB22) VH: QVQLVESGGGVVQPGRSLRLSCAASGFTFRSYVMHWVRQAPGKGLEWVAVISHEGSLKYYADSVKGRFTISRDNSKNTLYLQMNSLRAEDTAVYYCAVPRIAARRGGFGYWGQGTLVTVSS VL: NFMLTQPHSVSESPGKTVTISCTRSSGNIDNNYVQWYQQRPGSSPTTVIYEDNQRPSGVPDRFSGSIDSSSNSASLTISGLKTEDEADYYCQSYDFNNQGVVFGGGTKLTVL : 9.23
SR-AB44 (antibody, IgG1, V domains shown, Cycle 3, lineage SR-AB23) VH: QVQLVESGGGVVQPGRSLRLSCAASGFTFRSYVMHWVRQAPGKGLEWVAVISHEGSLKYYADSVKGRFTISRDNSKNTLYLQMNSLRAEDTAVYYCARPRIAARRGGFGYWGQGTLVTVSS VL: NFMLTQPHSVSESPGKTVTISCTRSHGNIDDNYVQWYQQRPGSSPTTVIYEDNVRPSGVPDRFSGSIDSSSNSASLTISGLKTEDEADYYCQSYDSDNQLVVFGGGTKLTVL : 9.39
SR-AB64 (antibody, IgG1, V domains shown, Cycle 3, lineage SR-AB26) VH: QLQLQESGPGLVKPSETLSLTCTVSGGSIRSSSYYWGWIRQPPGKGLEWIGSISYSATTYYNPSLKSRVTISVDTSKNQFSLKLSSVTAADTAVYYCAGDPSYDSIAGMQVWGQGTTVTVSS VL: DIQMTQSPSSLSASVGDRVTITCRASQSISYYLNWYQQKPGKAPKLLIYSASSRQSGVPSRFSGSGSGTDFTLTISSLQPEDFATYYCQQGFDFPLTFGGGTKVEIK : 8.55

# input for lookup
In: Consider the binder shown here: SR-AB40 (antibody, IgG1, V domains shown, Cycle 3, lineage SR-AB23) VH: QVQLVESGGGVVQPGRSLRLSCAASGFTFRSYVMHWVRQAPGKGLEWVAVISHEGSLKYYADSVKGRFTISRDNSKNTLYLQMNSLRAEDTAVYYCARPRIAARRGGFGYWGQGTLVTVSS VL: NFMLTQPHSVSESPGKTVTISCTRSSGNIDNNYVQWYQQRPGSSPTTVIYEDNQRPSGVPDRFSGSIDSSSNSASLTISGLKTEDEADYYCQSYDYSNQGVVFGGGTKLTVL What is its recorded pKd?
Out: 8.94
